Target: Tyrosine-protein kinase Fes/Fps (Homo sapiens) (UniProt P07332);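 note: mean inhibition of FES from the GSK PKIS kinase inhibitor screening set, assayed by Nanosyn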
Sequence (P07332 whole entry): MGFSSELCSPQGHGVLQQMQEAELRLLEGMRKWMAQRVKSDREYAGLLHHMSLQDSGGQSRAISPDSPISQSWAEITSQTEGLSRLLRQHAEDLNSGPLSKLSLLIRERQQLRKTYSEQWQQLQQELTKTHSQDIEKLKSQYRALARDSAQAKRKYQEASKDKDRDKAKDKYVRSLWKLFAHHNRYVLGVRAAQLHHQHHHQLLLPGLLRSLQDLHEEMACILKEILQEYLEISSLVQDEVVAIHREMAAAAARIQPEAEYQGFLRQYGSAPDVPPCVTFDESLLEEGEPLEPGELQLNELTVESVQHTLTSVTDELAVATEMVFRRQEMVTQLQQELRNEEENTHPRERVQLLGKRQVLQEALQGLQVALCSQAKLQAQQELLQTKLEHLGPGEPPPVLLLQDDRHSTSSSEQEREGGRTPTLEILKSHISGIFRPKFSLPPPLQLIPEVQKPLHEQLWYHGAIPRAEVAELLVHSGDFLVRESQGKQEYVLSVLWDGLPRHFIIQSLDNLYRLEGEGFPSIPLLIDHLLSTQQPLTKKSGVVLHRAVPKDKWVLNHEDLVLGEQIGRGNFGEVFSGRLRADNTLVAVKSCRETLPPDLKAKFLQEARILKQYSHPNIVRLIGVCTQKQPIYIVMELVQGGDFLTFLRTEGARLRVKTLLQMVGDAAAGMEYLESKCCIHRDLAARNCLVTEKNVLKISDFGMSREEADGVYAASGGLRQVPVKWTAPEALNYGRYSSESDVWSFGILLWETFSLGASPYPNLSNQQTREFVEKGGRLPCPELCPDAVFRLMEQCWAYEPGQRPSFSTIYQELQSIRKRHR
Conditions: at 1 µM
readout: inhibition (%)
Kindly answer with a numeric value in %, unit omitted.

Examples from the recorded data:
molecule | inhibition / %
CCN(CC)Cc1ccc(Nc2nccc(-c3cnn4ncccc34)n2)cc1 | 28
NC(=O)c1cc(-c2ccncc2)cc(-c2ccccc2)c1N | 3.92
c1ccc(Oc2ccc(Nc3ncc(-c4ccccc4)o3)cc2)cc1 | 0.4
COc1cc(Nc2ncc(-c3ccccc3)o2)cc(OC)c1OC | -1.45

[ask] Look at this molecule and give its reported inhibition. CCc1ccc(Oc2nccc(-c3c(-c4ccc(F)cc4)ncn3C3CCNCC3)n2)cc1
[reply] 3.8

[ask] Look at this molecule and give its reported inhibition. FC(F)(F)c1cccc(Nc2nccc(-c3cnn4nc(-c5ccccc5)ccc34)n2)c1
[reply] 2.38

[ask] Look at this molecule and give its reported inhibition. COc1cc2ncn(-c3cc(OCc4ccccc4C(F)(F)F)c(C(C)=O)s3)c2cc1OC
[reply] 2.74

[ask] Look at this molecule and give its reported inhibition. CN(C)CCOc1ccc(-c2cc(-c3ccc4c(c3)CCC4=NO)c(-c3ccncc3)o2)cc1
[reply] -1.71
